Attribution: ChEMBL document CHEMBL1777795

assay: AUC in Sprague-Dawley rat at 10 mg/kg, po; type: ADME, organism-based; set-up: dose 10 mg/kg, route oral; conditions: plasma
For each record, write down the corresponding AUC.
Reply with just the number (in nM·h).

AUC recorded for this compound, Cn1c(-c2ccccn2)c(C2CCCCC2)c2ccc(C(=O)NC(C)(C)C(=O)Nc3ccc(/C=C/C(=O)O)cc3)cc21 , is 870

AUC recorded for this compound, Cn1c(-c2cccc(N)n2)c(C2CCCCC2)c2ccc(C(=O)NC(C)(C)C(=O)Nc3ccc(/C=C/C(=O)O)cc3)cc21 , is 1180

###

assay: Mean residence time in Sprague-Dawley rat at 10 mg/kg, po; format: ADME, organism-based; parameters: dose 10 mg/kg, route oral; conditions: in vivo
EXPERIMENTAL ENDPOINT: MRT
The reply must contain the numeric value and, after it, the unit.

MRT recorded for this compound, Cn1c(-c2ccccn2)c(C2CCCCC2)c2ccc(C(=O)NC(C)(C)C(=O)Nc3ccc(/C=C/C(=O)O)cc3)cc21 , is 0.5 h

MRT recorded for this compound, Cn1c(-c2cccc(N)n2)c(C2CCCCC2)c2ccc(C(=O)NC(C)(C)C(=O)Nc3ccc(/C=C/C(=O)O)cc3)cc21 , is 3.4 h

###

test: Permeability from apical to basolateral side of human Caco2 cells; type: ADME, cell-based, Caco-2; details: Caco-2, read-out: permeability
For each record, write down the corresponding Papp A→B.
Reply with just the number (in ×10⁻⁶ cm/s).

Papp A→B recorded for this molecule, Cn1c(-c2ccoc2)c(C2CCCCC2)c2ccc(C(=O)NC(C)(C)C(=O)Nc3ccc(/C=C/C(=O)O)cc3)cc21 , is 6

Papp A→B recorded for this molecule, Cn1c(-c2cccnc2)c(C2CCCCC2)c2ccc(C(=O)NC(C)(C)C(=O)Nc3ccc(/C=C/C(=O)O)cc3)cc21 , is 9.4

Papp A→B recorded for this molecule, Cn1c(-c2cccc3cccnc23)c(C2CCCCC2)c2ccc(C(=O)NC(C)(C)C(=O)Nc3ccc(/C=C/C(=O)O)cc3)cc21 , is 3.4

Papp A→B recorded for this molecule, Cn1c(-c2cnccn2)c(C2CCCCC2)c2ccc(C(=O)NC(C)(C)C(=O)Nc3ccc(/C=C/C(=O)O)cc3)cc21 , is 7

Papp A→B recorded for this molecule, Cn1c(-c2cncnc2)c(C2CCCCC2)c2ccc(C(=O)NC(C)(C)C(=O)Nc3ccc(/C=C/C(=O)O)cc3)cc21 , is 3.3

Papp A→B recorded for this molecule, Cn1c(-c2cnco2)c(C2CCCCC2)c2ccc(C(=O)NC(C)(C)C(=O)Nc3ccc(/C=C/C(=O)O)cc3)cc21 , is 5

Papp A→B recorded for this molecule, Cn1c(-c2csc(-c3cccnc3)n2)c(C2CCCCC2)c2ccc(C(=O)NC(C)(C)C(=O)Nc3ccc(/C=C/C(=O)O)cc3)cc21 , is 0.2

Papp A→B recorded for this molecule, Cc1ccc(-c2c(C3CCCCC3)c3ccc(C(=O)NC(C)(C)C(=O)Nc4ccc(/C=C/C(=O)O)cc4)cc3n2C)nc1 , is 16.4

Papp A→B recorded for this molecule, Cn1c(-c2ccncc2)c(C2CCCCC2)c2ccc(C(=O)NC(C)(C)C(=O)Nc3ccc(/C=C/C(=O)O)cc3)cc21 , is 0.3

Papp A→B recorded for this molecule, Cn1c(-c2nccs2)c(C2CCCCC2)c2ccc(C(=O)NC(C)(C)C(=O)Nc3ccc(/C=C/C(=O)O)cc3)cc21 , is 8.5

Papp A→B recorded for this molecule, COc1cccc(-c2c(C3CCCCC3)c3ccc(C(=O)NC(C)(C)C(=O)Nc4ccc(/C=C/C(=O)O)cc4)cc3n2C)n1 , is 24

Papp A→B recorded for this molecule, Cn1c(-c2cccc(N)n2)c(C2CCCCC2)c2ccc(C(=O)NC(C)(C)C(=O)Nc3ccc(/C=C/C(=O)O)cc3)cc21 , is 1.5

Papp A→B recorded for this molecule, Cn1c(-c2ccccn2)c(C2CCCCC2)c2ccc(C(=O)NC(C)(C)C(=O)Nc3ccc(/C=C/C(=O)O)cc3)cc21 , is 16

Papp A→B recorded for this molecule, Cc1cccc(-c2c(C3CCCCC3)c3ccc(C(=O)NC(C)(C)C(=O)Nc4ccc(/C=C/C(=O)O)cc4)cc3n2C)n1 , is 6.9

Papp A→B recorded for this molecule, Cc1ccc(-c2c(C3CCCCC3)c3ccc(C(=O)NC(C)(C)C(=O)Nc4ccc(/C=C/C(=O)O)cc4)cc3n2C)cn1 , is 2.6

###

test: Cmax in Sprague-Dawley rat at 10 mg/kg, po; format: ADME, organism-based; parameters: dose 10 mg/kg, route oral; conditions: in vivo
EXPERIMENTAL ENDPOINT: Cmax
The reply must contain the numeric value and, after it, the unit.

Cmax recorded for this compound, Cn1c(-c2ccccn2)c(C2CCCCC2)c2ccc(C(=O)NC(C)(C)C(=O)Nc3ccc(/C=C/C(=O)O)cc3)cc21 , is 1230 nM

Cmax recorded for this compound, Cn1c(-c2cccc(N)n2)c(C2CCCCC2)c2ccc(C(=O)NC(C)(C)C(=O)Nc3ccc(/C=C/C(=O)O)cc3)cc21 , is 990 nM
